Data provenance is PubChem BioAssay AID651771.

Tested on: SK-MEL-5 DCT mRNA qPCR, delta-delta-Ct, overnight
Experiment: suppression of MITF target gene DCT mRNA, dose response, orthogonal assay for MITF inhibitor project, cell-based, SK-MEL-5, RT-qPCR, dry powder samples (AID 651771)
Records with an inconclusive call do not appear.
MEASURE: AC40

As a guide, the following entries are already answered.
SAMPLE SMILES | MEASURE | OBSERVED
C=CCNC1=C(Cl)C(=O)c2ccccc2C1=O | AC40 | 1 µM
O=C1C(Nc2ccc(Cl)cc2)=C(N2CCCC2)C(=O)c2ccccc21 | AC40 | 9.53 µM
NC1=C(NC(=O)c2ccccc2)C(=O)c2ccccc2C1=O | AC40 | 1.73 µM
O=C1C(Nc2ccc(Br)cc2)=C(N2CCCCC2)C(=O)c2ccccc21 | AC40 | 12.6 µM

For "NC1=CC(=O)c2ccccc2C1=O" on SK-MEL-5 DCT mRNA qPCR, delta-delta-Ct, overnight, measured AC40 was 0.966 µM

For "CC(C)N1CCN(C2=C(Nc3ccc(F)cc3)C(=O)c3ccccc3C2=O)CC1" on SK-MEL-5 DCT mRNA qPCR, delta-delta-Ct, overnight, measured AC40 was 2.9 µM

For "CCN1CCN(C2=C(Nc3ccc(F)cc3F)C(=O)c3ccccc3C2=O)CC1" on SK-MEL-5 DCT mRNA qPCR, delta-delta-Ct, overnight, measured AC40 was 4.78 µM

For "NC1=C(NS(=O)(=O)c2cccs2)C(=O)c2ccccc2C1=O" on SK-MEL-5 DCT mRNA qPCR, delta-delta-Ct, overnight, measured AC40 was 2.01 µM

For "CN1CCN(C2=C(NS(=O)(=O)c3ccc(Br)s3)C(=O)c3ccccc3C2=O)CC1" on SK-MEL-5 DCT mRNA qPCR, delta-delta-Ct, overnight, measured AC40 was 1.68 µM

For "COC1=C(NS(=O)(=O)c2ccc(Br)cc2)C(=O)c2ccccc2C1=O" on SK-MEL-5 DCT mRNA qPCR, delta-delta-Ct, overnight, measured AC40 was 8.65 µM

For "O=C1C=C(NS(=O)(=O)c2ccccc2)C(=O)c2ccccc21" on SK-MEL-5 DCT mRNA qPCR, delta-delta-Ct, overnight, measured AC40 was 4.06 µM
